FYI, the data here is from patent US9365499B2.

Answer each item with its documented Cmax.
- Protocol Text: in vivo
- Design: species or system male SD rats
- Settings: male, SD, rat, po, 5 mg/kg
Numbers only, in ng/mL.

Need Cmax for each of these compounds.
1. CN(C)c1cc(CN2CCC3(CC2)CC3)c(O)c2c1C[C@H]1C[C@H]3[C@H](N(C)C)C(O)=C(C(N)=O)C(=O)[C@@]3(O)C(O)=C1C2=O [Compound 20]
2. CN(C)c1cc(CN2CC3(CCC3)C2)c(O)c2c1C[C@H]1C[C@H]3[C@H](N(C)C)C(O)=C(C(N)=O)C(=O)[C@@]3(O)C(O)=C1C2=O [Compound 9]
3. CN(C)c1cc(CN2CC3CC3C2)c(O)c2c1C[C@H]1C[C@H]3[C@H](N(C)C)C(O)=C(C(N)=O)C(=O)[C@@]3(O)C(O)=C1C2=O (stereo partly drawn) [Compound 23]

[116, 35.6, 199]

---

- Protocol Text: in vivo
- Design: species or system male SD rats
- Settings: male, SD, rat, po, 10 mg/kg
Measured Quantity: AUC(0-inf) (ng·h/mL)
Give bare numbers, in ng·h/mL.

Which AUC(0-inf) value is on record for CN(C)c1cc(NC(=O)CNC(C)(C)C)c(O)c2c1C[C@H]1C[C@H]3[C@H](N(C)C)C(O)=C(C(N)=O)C(=O)[C@@]3(O)C(O)=C1C2=O ?
296

---

- Protocol Text: in vivo pharmacokinetics experiment in rats (Test Example 2)
- Settings: male, SD, rat, plasma, po (gavage), 5 mg/kg
Measured Quantity: Tmax (h)
Give bare numbers, in h.

Which Tmax value is on record for CN(C)c1cc(CNC2CC(F)(F)C2)c(O)c2c1C[C@H]1C[C@H]3[C@H](N(C)C)C(O)=C(C(N)=O)C(=O)[C@@]3(O)C(O)=C1C2=O [Compound 2] ?
1

---

- Protocol Text: in vivo pharmacokinetics experiment in rats (Test Example 2)
- Settings: male, SD, rat, plasma, iv, 5 mg/kg
Measured Quantity: AUC(0-inf) (ng·h/mL)
Numbers only, in ng·h/mL.

Which AUC(0-inf) value is on record for CN(C)c1cc(CNC2CC(F)(F)C2)c(O)c2c1C[C@H]1C[C@H]3[C@H](N(C)C)C(O)=C(C(N)=O)C(=O)[C@@]3(O)C(O)=C1C2=O [Compound 2] ?
2290
